Target: T1, IL-18R on HEK-Blue IL18R reporter cells (UniProt Q13478 19-541; O95256 20-599)
T1 sequence (looked up) 1: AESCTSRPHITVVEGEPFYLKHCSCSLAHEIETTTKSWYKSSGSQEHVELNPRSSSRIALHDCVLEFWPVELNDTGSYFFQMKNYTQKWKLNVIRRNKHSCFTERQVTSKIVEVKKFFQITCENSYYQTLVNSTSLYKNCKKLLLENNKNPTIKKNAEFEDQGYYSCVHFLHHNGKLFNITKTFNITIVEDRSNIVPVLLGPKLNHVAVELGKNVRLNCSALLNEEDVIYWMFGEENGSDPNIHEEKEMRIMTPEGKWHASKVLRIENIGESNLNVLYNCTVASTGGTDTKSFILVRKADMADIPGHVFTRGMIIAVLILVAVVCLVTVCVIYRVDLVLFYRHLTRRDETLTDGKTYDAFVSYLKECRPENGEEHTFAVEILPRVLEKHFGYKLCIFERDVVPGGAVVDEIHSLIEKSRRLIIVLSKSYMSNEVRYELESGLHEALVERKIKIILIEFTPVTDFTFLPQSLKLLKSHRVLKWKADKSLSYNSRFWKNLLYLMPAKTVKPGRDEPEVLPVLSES
T1 sequence (looked up) 2: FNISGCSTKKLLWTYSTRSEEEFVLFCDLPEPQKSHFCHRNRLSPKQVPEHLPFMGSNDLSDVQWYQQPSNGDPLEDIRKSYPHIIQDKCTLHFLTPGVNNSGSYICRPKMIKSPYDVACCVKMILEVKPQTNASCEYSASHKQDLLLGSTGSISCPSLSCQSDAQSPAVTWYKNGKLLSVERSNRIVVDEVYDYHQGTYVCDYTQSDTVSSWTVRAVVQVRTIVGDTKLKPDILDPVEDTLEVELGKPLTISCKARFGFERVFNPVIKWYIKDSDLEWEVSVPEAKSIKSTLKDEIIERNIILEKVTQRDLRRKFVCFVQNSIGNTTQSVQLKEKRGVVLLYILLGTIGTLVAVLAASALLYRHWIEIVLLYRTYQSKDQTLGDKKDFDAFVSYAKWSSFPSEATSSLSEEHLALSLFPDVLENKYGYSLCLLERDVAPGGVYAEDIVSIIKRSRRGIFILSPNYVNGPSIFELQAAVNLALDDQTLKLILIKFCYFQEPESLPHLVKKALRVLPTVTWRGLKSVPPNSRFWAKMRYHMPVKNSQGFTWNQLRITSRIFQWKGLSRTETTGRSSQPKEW
Assay: cell-based or functional assay
quantityKind: EC50, HEK-Blue IL18R SEAP reporter (pM)
One number for each entry, in pM.

binder	EC50, HEK-Blue IL18R SEAP reporter / pM
IL-18 polypeptide C146 (SEQ ID NO: 68) (ligand) YFGKLESKLSIIRNLNDQVLFIDQGNRPLFEDMTDSDARDNAPRTIFIISGYADSQPRGMAVTISVKCEKISTLSAENKIISFKEMNPPDNIKDTKSDIIFFQRSVPGHDNKMQFESSSYEGYFLAAEKERDLFKLILKKEDELGDRSIMFTVQNED	0.8

Value sought for every listed binder: EC50, HEK-Blue IL18R SEAP reporter.
1. IL-18 polypeptide C158 (ligand) YFGKLESKLSIIRNLNDQVLFIDQGNRPLFEDMTDSDARDNAPRTIFIISMYADSQPRGMAVTISVKCEKISTLSAENKIISFKEMNPPDNIKDTKSDIIFFQRSVPAHDNKMQFESSSYEGYFLAAEKERDLFKLILKKEDELGDRSIMFTVQNED
2. IL-18 polypeptide C177 (ligand) YFGKLKSKLSIIRNLNDQVLFIDQGNRPLFEDMTDSDARDNAPRTIFIRSMYADSQPRGMAVAISVKCEKISTLSAENKIISFKEMNPPDNIKDTKSDIIFFQRSVPGHDNKMQFESSSYEGYFLAAEKERDLFKLILKKEDELGDRSIMFTVQNED
3. IL-18 polypeptide C166 (ligand) YFGKLESKLSIIRNLNDQVLFIDQGNRPLFEDMTDSDARDNAPRTIFIISMYKDTQPRGMAVTISVKCEKISTLSAENKIISFKEMNPPDNIKDTKSDIIFFQRSVPGHDNKMQFESSSYEGYFLAAEKERDLFKLILKKEDELGDRSIMFTVQNED
4. IL-18 polypeptide C144 (ligand) YFGKLESKLSIIRNLNDQVLFIDQGNRPLFEDMTDSDARDNAPRTIFIISMYADSQPRGMAVAISVKCEKISTLSAENKIISFKEMNPPDNIKDTKSDIIFFQRSVPGHDNKMQFESSSYEGYFLAAEKERDLFKLILKKEDELGDRSIMFTVQNED
5. IL-18 polypeptide SEQ ID NO: 30 (E6K, V11I, C38A, K53A, T63A, C76A, C127A) (ligand, also called C086; IL-18 variant) YFGKLKSKLSIIRNLNDQVLFIDQGNRPLFEDMTDSDARDNAPRTIFIISMYADSQPRGMAVAISVKCEKISTLSAENKIISFKEMNPPDNIKDTKSDIIFFQRSVPGHDNKMQFESSSYEGYFLAAEKERDLFKLILKKEDELGDRSIMFTVQNED
6. IL-18 polypeptide C145 (ligand) YFGKLESKLSIIRNLNDQVLFIDQGNRPLFEDMTDSDARDNAPRTIFIISMYADAQPRGMAVTISVKCEKISTLSAENKIISFKEMNPPDNIKDTKSDIIFFQRSVPGHDNKMQFESSSYEGYFLAAEKERDLFKLILKKEDELGDRSIMFTVQNED

Result block:
15.6
0.04
4.73
0.17
0.034
3.63

Value sought for every listed binder: EC50, HEK-Blue IL18R SEAP reporter.
1. IL-18 polypeptide C167 (ligand) YFGKLESKLSIIRNLNDQVLFIDQGNRPLFEDMTDSDARDNAPRTIFIISMYKDSQPRGMAVTISVKCEKISTLSAENKIISFKEMNPPDNIKDTKSDIIFFQRIVPGHDNKMQFESSSYEGYFLAAEKERDLFKLILKKEDELGDRSIMFTVQNED
2. IL-18 polypeptide SEQ ID NO: 60 (E6K, C38Q, K53A) (ligand) YFGKLKSKLSVIRNLNDQVLFIDQGNRPLFEDMTDSDQRDNAPRTIFIISMYADSQPRGMAVTISVKCEKISTLSCENKIISFKEMNPPDNIKDTKSDIIFFQRSVPGHDNKMQFESSSYEGYFLACEKERDLFKLILKKEDELGDRSIMFTVQNED
3. IL-18 polypeptide C143 (ligand) YFGKLESKLSIIRNLNDQVLFIDQGNRPLFEDMTDSDARDNAPRTIFIISMYADSQPRGMAVTISVKCEKISTLSAENKIISFKEMNPPDNIKDTKSDIIFFQRSVPGHDNKMQFESSSYEGYFLAAEKERDLFKLILKKEDELGDRSIMFTVQNED
4. IL-18 polypeptide SEQ ID NO: 62 (E6K, C38A, K53A, C127A) (ligand) YFGKLKSKLSVIRNLNDQVLFIDQGNRPLFEDMTDSDARDNAPRTIFIISMYADSQPRGMAVTISVKCEKISTLSCENKIISFKEMNPPDNIKDTKSDIIFFQRSVPGHDNKMQFESSSYEGYFLAAEKERDLFKLILKKEDELGDRSIMFTVQNED

Result block:
[5.37, 0.203, 0.98, 0.17]

Value sought for every listed binder: EC50, HEK-Blue IL18R SEAP reporter.
1. IL-18 polypeptide C162 (ligand) YFGKLESELSIIRNLNDQVLFIDQGNRPLFEDMTDSDARDNAPRTIFIISMYKDSQPRGMAVTISVKCEKISTLSAENKIISFKEMNPPDNIKDTKSDIIFFRRSVPGHDNKMQFESSSYEGYFLAAEKERDLFKLILKKEDELGDRSIMFTVQNED
2. IL-18 polypeptide SEQ ID NO: 50 (E06K, K53A, T63A) (ligand) YFGKLKSKLSVIRNLNDQVLFIDQGNRPLFEDMTDSDCRDNAPRTIFIISMYADSQPRGMAVAISVKCEKISTLSCENKIISFKEMNPPDNIKDTKSDIIFFQRSVPGHDNKMQFESSSYEGYFLACEKERDLFKLILKKEDELGDRSIMFTVQNED

Result block:
1: 2.3; 2: 1.77
